experiment: Loading capacity of protein composition C with hydrophilic and hydrophobic agents; type: physicochemical; details: in protein composition C, room temperature; loading trial to date, not maximum loading
assay.readout: Loading (mg/g)
Answers are plain numbers, in mg/g.

molecule="CC1=C(/C=C/C(C)=C/C=C/C(C)=C/C=O)C(C)(C)CCC1 [Retinal]" assay_readout=Loading measured_result=1
molecule="C=C[C@H]1C[N@@]2CC[C@H]1C[C@H]2[C@H](O)c1ccnc2ccc(OC)cc12 [Quinine sulphate]" assay_readout=Loading measured_result=10
molecule="CCCCCCCCCCCCCCCC(=O)OC/C=C(C)/C=C/C=C(C)/C=C/C1=C(C)CCCC1(C)C [Retinyl palmitate]" assay_readout=Loading measured_result=25
molecule="CN(C)c1ccc2nc3ccc(=[N+](C)C)cc-3sc2c1 [Methylene blue]" assay_readout=Loading measured_result=10

// switching to the query molecule
Incoming: Look up Loading: O=C(O)c1ccccc1 [Benzoic acid]
Outgoing: 10

Each recorded value in this set is attributed to patent US20210154359A1.
